The reported measurements were obtained from the supplement of paper PMC11865577.

- Tested on: TO-3-N3-2 (biotin conjugate)
- ASSAY_PROTOCOL: pull-down binding Z-score (relative to library population); higher = stronger binding
- STATED_CONDITIONS: RNA library: Library-2
Is pull-down binding Z-score at least -0.1? Then MET. If not, NOT MET.

query: For this sequence, is measured pull-down binding Z-score -0.1 or higher? UCUGCUCGCAUAGUGUAUACAGCUUGCUCUCAUGCCGCUGUUGAUGCACUAUGUGAGAAGGCAUUAAAAUAUUUGCCUAUAGA
result: NOT MET

query: Check the entry AACAGGACCUGUGCUCACUGGGGCCUGCA [hsa-mir-6797] : does pull-down binding Z-score equal or exceed -0.1?
result: MET

query: Has GGGGAGAGGGACACGCCCUGGGCUCUGCCCAGGGUGCAGCCGGACUGACUGAG [hsa-mir-1225] a recorded pull-down binding Z-score greater than or equal to -0.1?
result: MET

query: Can GAAGAUUCUGAAAAUCACUAACU [hsa-mir-6878] be said to have pull-down binding Z-score at or above -0.1?
result: MET

query: Is it the case that GCCAGACAUGCUCUUGC [hsa-mir-6894] has pull-down binding Z-score reaching or exceeding -0.1?
result: NOT MET

query: Confirm if pull-down binding Z-score reported for the sequence GGCGUAAGUCUGAUACUUACCUG [U1snRNP5ss-10] is -0.1 or above.
result: MET

query: # check: pull-down binding Z-score of CAGACUGUCUUCCCAAAUAGCCUG [hsa-mir-4772] is greater than or equal to -0.1
result: NOT MET

query: Has GCGGCCGCGCUGGCCGCU [hsa-mir-3665] a recorded pull-down binding Z-score greater than or equal to -0.1?
result: NOT MET

query: State whether the measured pull-down binding Z-score reaches -0.1, counting equality as reaching it, for GAUGGCACUUGUGGCUUAGUAGAAGUUGAAAAAGGCGUUUUGCCUCAACUUGAACAGCCCUAUGUGUUCAUC
result: MET

query: Exam item: decide whether the reported pull-down binding Z-score for UCAUAAAGAUGAUC [hsa-mir-8067] is at least -0.1.
result: MET

====

- Test system: TO-3-N3-2 (biotin conjugate)
- ASSAY_PROTOCOL: pull-down binding Z-score (relative to library population); higher = stronger binding
- STATED_CONDITIONS: RNA library: Library-2
Classification by pull-down binding Z-score follows these ranges: lower segment (below -0.2), middle segment (-0.2 to below 0.06), upper segment (0.06 or more)

query: Bin? AAGACACUAUCUGACAACAACAGGGCUCUU [hsa-mir-550b-2]
result: upper segment

query: Class? Entry: UGGGGAUCACAACUCA [IAV_invivo_PB1_2_Motif_11+IAV_invivo_PB1_2_Motif_11]
result: middle segment

query: Consider CUCUUGUAAUGUAAACAGAUUUAAUGUUGCUAUUACCAGAG . To which pull-down binding Z-score class does it belong?
result: middle segment

query: // return the class label for CCCGUAGGACACCGAGGCUUAUGAAUAGGA [hsa-mir-6081]
result: upper segment

query: Textbook exercise: identify the category of the sequence given here, AUAUUGACACUAUAACAAUAAUGUCAAUAU [hsa-mir-4795] , according to its measured value.
result: lower segment

query: Consider GUAAAUUUACUUAC [DMSMaPseq_invitro_SARS-CoV-2_Motif_170] . To which pull-down binding Z-score class does it belong?
result: middle segment

query: Please classify: GAAAUAGGCUGCGAAGAUAACAGUAUUUC [hsa-mir-3942]
result: middle segment

query: Please classify: UCUGUACCGUCUGCGGUAUGUGGA [DMSMaPseq_invitro_SARS-CoV-2_Motif_240]
result: lower segment

query: Into which bin does this sequence go? UCUUGGUGCCACCAUUGAGAACGCCAGGA [hsa-mir-492]
result: lower segment

query: Could you place GGCUGUGGCCUAGGGCAAGCCACAAAGCC [hsa-mir-4642] in its proper category? Many thanks.
result: upper segment

query: # classify by pull-down binding Z-score band: GUCAGGUGAUGGUGAUAAGGUCAAGGCCUG [hsa-mir-6853]
result: middle segment

query: Which category does the recorded pull-down binding Z-score put GUAUGAGCAGUAUAU [DMSMaPseq_invitro_SARS-CoV-2_Motif_451] in?
result: lower segment

query: Which band does GGCAGACGUGGUCCAGAACAAACCCAAGGAAAUUUUGGGGACCAGGAACUAAUCAGACAAGGAACUGAUUACAAACAUUGGCC fall in?
result: upper segment

query: Band of GCUUUGUCCAAAAUGCCCUUAAUGGGAACGGGGAUCCAAAUAACAUGGACAAAGC [IAV_invivo_M1_M2_7_Motif_6+IAV_invivo_M1_M2_7_Motif_6] ?
result: upper segment

query: Please report the category associated with CUGCACUGUUAGCGGGUACAAUCACUUCUGGUUGGACCUUUGGUGCAG [SHAPE_invitro_SARS-CoV-2_Motif_437] , nothing else.
result: middle segment

query: Exam item: assign UCACAGGGCUCAGGGAAUGUGUCUGCACCUGUGA [hsa-mir-587] to the correct category.
result: middle segment

query: Given CCAGGUUCCAUGUGAUGCUGAA [hsa-mir-6806] , name the class its pull-down binding Z-score places it in.
result: upper segment

query: Hello team, could you let me know which band the following sequence falls into: CAGGUAGUUUUGGCAUGACUCUACUG [hsa-mir-20b]
result: lower segment

query: For the record UGUGUUCAGUGGAACCAAGGUAAACACA [hsa-mir-624] , report the class its pull-down binding Z-score corresponds to.
result: upper segment

query: Each sequence maps to one class by pull-down binding Z-score. Which class for CUCUGGUCUAUAAUGGGUUAAAUAGUAGAG [hsa-mir-609] ?
result: upper segment

query: Determine which band this sequence sits in: CAGCCUUGACAACAGGCUG [hsa-mir-3130-2]
result: middle segment

query: Classify this sequence: CUGAGCGGCUCCAUCCCCCGGCCUGCUCAU [hsa-mir-6729]
result: upper segment

query: Which bin, given its pull-down binding Z-score, does GCGGGGUGUGGUGGGGCUGGGGCUGGCCCCCUCCUCACACCUC [hsa-mir-6800] occupy?
result: upper segment

query: Class (by measured pull-down binding Z-score) for AGUGGACGAGUCUCAUUA [hsa-mir-3193]
result: upper segment

query: # classify by pull-down binding Z-score band: GGAAGGGCGCCUGUGCUUCGUCC [hsa-mir-572]
result: lower segment

query: Class label required: AACUGUGAUGUUGUAAUAGGAAUUGUCAACAACACAGUU
result: middle segment

query: Bin this entry: GGAAUAGUGCUCCUGGUUGUUUC [hsa-mir-1180]
result: lower segment

query: Kindly state the category for this sequence: GAAUUCGAUUCAUCAAAGCGAGUC [hsa-mir-485]
result: upper segment

query: Band of AAACCCGGUAAUUUUAACAAAGACUUCUAUGACUUUGCUGUGUCUAAGGGUUU [SHAPE_invivo_SARS-CoV-2_Motif_278] ?
result: lower segment

query: Band for UGAAGUAUUUUGUGAAAAUAGGACCUGAGCGCACCUGUUGUCUAUGUGAUAGACGUGCCACAUGCUUUUCCACUGCUUCA [SHAPE_invitro_SARS-CoV-2_Motif_342] ?
result: lower segment

query: Which band does CUGUGCAGAACAUCCGCUCACCUGUACAG [hsa-mir-214] fall in?
result: lower segment

query: Classify this sequence: AUUGUUGUCGCUUCCAAGAAAAGGACGAAGAUGACAAU [DMSMaPseq_invitro_SARS-CoV-2_Motif_245]
result: lower segment

query: Band assignment needed for CUUCAGCCCCAGGAAGCCUUGGUCGGGGGCAGGAG [hsa-mir-647] please.
result: middle segment

query: The entry to classify is CUAUCCUUCCCUUGGAAAAUGAUCUGAG [hsa-mir-4770] ; which class holds it?
result: middle segment

query: # bin lookup: classify CACUAAAAAGUGGAAAUACCCACAAGUUAAUG by its pull-down binding Z-score
result: lower segment

query: Assign a bin to GGAAGAAGGCUGAGGGAGAUGCCUUCUUCC [hsa-mir-6512]
result: middle segment

query: Band for CCCUGCCCAGUGCAGGAG [hsa-mir-6069] ?
result: lower segment

query: Consider GAGAGAGUGCACAGCCAGCUCAGGGAUUAAAGCUCUUUCUCUCUCUCUC [hsa-mir-7110] . To which pull-down binding Z-score class does it belong?
result: upper segment

query: Category of GUGUUAUAACAC , please.
result: lower segment

query: Sort into band: UUCAUAGGGAAGCCUUUCCAUGAA [hsa-mir-4738]
result: lower segment
